The reported measurements were obtained from patent US4378358A.

Each item that follows carries a reported inhibition in vivo at 50 mg/kg.
- System: carrageenin paw edema
- Experiment Summary: Antiinflammatory activity according to Winter et al., carrageenin paw edema, modified
- Format: in vivo, rat
- Experimental Parameters: Rattus norvegicus, po, 4 h; 50 mg/kg per os, female rats; read-out: % inhibition of the edema after 4 hours
- Method: Antiinflammatory activity according to WINTER et al., Proc. Soc. Exp. Biol. Med.; 111, 544; 1962. The test was modified in that the injection of carrageenin and the administration of the compound by gastric gavage were carried out simultaneously and the paw edema was measured at the plethysmograph after 4 hours. Animals: 6 female rats for each group, average body weight: 150g
Give just the number in %; leave the unit off.

Examples with answers:
Molecule	Reading
CN(C)CCCNC(=O)c1nn(-c2cccc(F)c2)c2c1N(C)S(=O)(=O)c1ccccc1-2	12
CN1c2c(C(=O)NCCCN3CCOCC3)nn(-c3ccccc3)c2-c2ccccc2S1(=O)=O	9

Input: # lookup: inhibition in vivo at 50 mg/kg of CCN1CCCC1CNC(=O)c1nn(-c2ccccc2)c2c1N(C)S(=O)(=O)c1ccccc1-2 (centres unmarked)
Output: 38

Input: # lookup: inhibition in vivo at 50 mg/kg of CN1c2c(C(=O)NCCCNC3CCCCC3)nn(-c3cccc(F)c3)c2-c2ccccc2S1(=O)=O
Output: 27

Input: # lookup: inhibition in vivo at 50 mg/kg of CCN(CC)CCNC(=O)c1nn(-c2ccccc2)c2c1N(C)S(=O)(=O)c1ccccc1-2
Output: 10

Input: # lookup: inhibition in vivo at 50 mg/kg of CN1c2c(C(=O)NCCCNC3CCCCC3)nn(-c3ccccc3)c2-c2ccccc2S1(=O)=O
Output: 36

Input: # lookup: inhibition in vivo at 50 mg/kg of CCN(CC)CCNC(=O)c1nn(-c2cccc(F)c2)c2c1N(C)S(=O)(=O)c1ccccc1-2
Output: 15

Input: # lookup: inhibition in vivo at 50 mg/kg of CN(C)CCCNC(=O)c1nn(-c2ccccc2)c2c1N(C)S(=O)(=O)c1ccccc1-2
Output: 12

---

Each item that follows carries a reported Antiinflammatory relative potency to naproxen.
- System: carrageenin paw edema
- Experiment Summary: Antiinflammatory activity according to Winter et al., carrageenin paw edema, modified
- Assay type: in vivo, rat
- Experimental Parameters: 100 mg/kg per os
The response must contain the number and no unit.

Examples with answers:
Molecule	Reading
CCN(CC)CCNC(=O)c1nn(-c2ccccc2)c2c1N(C)S(=O)(=O)c1ccccc1-2 [Compound I-1]	0.8
CN(C)CCCNC(=O)c1nn(-c2ccccc2)c2c1N(C)S(=O)(=O)c1ccccc1-2 [Compound I-2]	0.8
CN1c2c(C(=O)NCCCNC3CCCCC3)nn(-c3cccc(F)c3)c2-c2ccccc2S1(=O)=O [Compound I-23]	1.8
CN1c2c(C(=O)NCCCN3CCOCC3)nn(-c3ccccc3)c2-c2ccccc2S1(=O)=O [Compound I-3]	0.7
CCN(CC)CCNC(=O)c1nn(-c2cccc(F)c2)c2c1N(C)S(=O)(=O)c1ccccc1-2 [Compound I-20]	1.0

Input: # lookup: Antiinflammatory relative potency to naproxen of CN(C)CCCNC(=O)c1nn(-c2cccc(F)c2)c2c1N(C)S(=O)(=O)c1ccccc1-2 [Compound I-21]
Output: 0.9

Input: # lookup: Antiinflammatory relative potency to naproxen of CCN1CCCC1CNC(=O)c1nn(-c2ccccc2)c2c1N(C)S(=O)(=O)c1ccccc1-2 (centres unmarked) [Compound I-24]
Output: 2.1

Input: # lookup: Antiinflammatory relative potency to naproxen of CN1c2c(C(=O)NCCCNC3CCCCC3)nn(-c3ccccc3)c2-c2ccccc2S1(=O)=O [Compound I-4]
Output: 2.4

---

- Tested on: rats
- Assay type: in vivo, rat
- Experimental Parameters: male rats, single oral administration
Quantity Name: Gastrolesive effect, relative potency to piroxicam
The response must contain the number and no unit.

Compound	Reading
CN1c2c(C(=O)NCCCNC3CCCCC3)nn(-c3cccc(F)c3)c2-c2ccccc2S1(=O)=O	100
CN1c2c(C(=O)NCCCNC3CCCCC3)nn(-c3ccccc3)c2-c2ccccc2S1(=O)=O	100
CN1C(C(=O)Nc2ccccn2)=C(O)c2ccccc2S1(=O)=O [Piroxicam, piroxicam, reference compound]	1

Input: # lookup: Gastrolesive effect, relative potency to piroxicam of CN(C)CCCNC(=O)c1nn(-c2ccccc2)c2c1N(C)S(=O)(=O)c1ccccc1-2
Output: 100

---

- System: Rat
- Experiment Summary: in vivo
- Assay type: in vivo
- Experimental Parameters: per os
Output Fulfilled for records whose LD 50, relative ratio to piroxicam is lower than 8, Not fulfilled for records at or above 8.

Molecule	Assigned Class
CN(C)CCCNC(=O)c1nn(-c2cccc(F)c2)c2c1N(C)S(=O)(=O)c1ccccc1-2 [Compound I-21]	Not fulfilled

Input: A record lists CN1c2c(C(=O)NCCCNC3CCCCC3)nn(-c3cccc(F)c3)c2-c2ccccc2S1(=O)=O [Compound I-23] . Is its LD 50, relative ratio to piroxicam below 8?
Output: Fulfilled

Input: A record lists CN1C(C(=O)Nc2ccccn2)=C(O)c2ccccc2S1(=O)=O [Piroxicam, piroxicam, reference compound] . Is its LD 50, relative ratio to piroxicam below 8?
Output: Fulfilled

Input: A record lists CCN1CCCC1CNC(=O)c1nn(-c2ccccc2)c2c1N(C)S(=O)(=O)c1ccccc1-2 (stereo not drawn) [Compound I-24] . Is its LD 50, relative ratio to piroxicam below 8?
Output: Fulfilled

Input: A record lists CN(C)CCCNC(=O)c1nn(-c2ccccc2)c2c1N(C)S(=O)(=O)c1ccccc1-2 [Compound I-2] . Is its LD 50, relative ratio to piroxicam below 8?
Output: Not fulfilled

---

- System: Mouse
- Experimental Parameters: per os
Each item that follows carries a reported LD 50, relative ratio to naproxen.
The response must contain the number and no unit.

Examples with answers:
Query Smiles	Target Or Test System	Reading
CN1c2c(C(=O)NCCCN3CCOCC3)nn(-c3ccccc3)c2-c2ccccc2S1(=O)=O	Mouse	1.8
CN(C)CCCNC(=O)c1nn(-c2ccccc2)c2c1N(C)S(=O)(=O)c1ccccc1-2	Mouse	1.1
CCN(CC)CCNC(=O)c1nn(-c2ccccc2)c2c1N(C)S(=O)(=O)c1ccccc1-2	Mouse	2.3
CCN(CC)CCNC(=O)c1nn(-c2cccc(F)c2)c2c1N(C)S(=O)(=O)c1ccccc1-2	Mouse	1.3

Next molecule, please.
Input: # lookup: LD 50, relative ratio to naproxen of CN(C)CCCNC(=O)c1nn(-c2cccc(F)c2)c2c1N(C)S(=O)(=O)c1ccccc1-2
Output: 1.2

---

- Test system: phenylquinone writhes
- Experiment Summary: Analgesic activity according to Hendershot et al., phenylquinone writhes, modified
- Assay type: in vivo, mouse
- Experimental Parameters: 50 mg/kg oral
Quantity Name: Analgesic relative potency to piroxicam
The response must contain the number and no unit.

Molecule	Quantity Name	Reading
CN(C)CCCNC(=O)c1nn(-c2ccccc2)c2c1N(C)S(=O)(=O)c1ccccc1-2 [Compound I-2]	Analgesic relative potency to piroxicam	1.5

Input: Request: Analgesic relative potency to piroxicam, test system phenylquinone writhes, entry CN1c2c(C(=O)NCCCNC3CCCCC3)nn(-c3cccc(F)c3)c2-c2ccccc2S1(=O)=O [Compound I-23]
Output: 1.2

Input: Request: Analgesic relative potency to piroxicam, test system phenylquinone writhes, entry CCN(CC)CCNC(=O)c1nn(-c2ccccc2)c2c1N(C)S(=O)(=O)c1ccccc1-2 [Compound I-1]
Output: 0.9

Input: Request: Analgesic relative potency to piroxicam, test system phenylquinone writhes, entry CCN1CCCC1CNC(=O)c1nn(-c2ccccc2)c2c1N(C)S(=O)(=O)c1ccccc1-2 (centres unmarked) [Compound I-24]
Output: 0.7

Input: Request: Analgesic relative potency to piroxicam, test system phenylquinone writhes, entry CN1c2c(C(=O)NCCCNC3CCCCC3)nn(-c3ccccc3)c2-c2ccccc2S1(=O)=O [Compound I-4]
Output: 0.9

Input: Request: Analgesic relative potency to piroxicam, test system phenylquinone writhes, entry CCN(CC)CCNC(=O)c1nn(-c2cccc(F)c2)c2c1N(C)S(=O)(=O)c1ccccc1-2 [Compound I-20]
Output: 1.0

Input: Request: Analgesic relative potency to piroxicam, test system phenylquinone writhes, entry CN1c2c(C(=O)NCCCN3CCOCC3)nn(-c3ccccc3)c2-c2ccccc2S1(=O)=O [Compound I-3]
Output: 0.7

Input: Request: Analgesic relative potency to piroxicam, test system phenylquinone writhes, entry CN(C)CCCNC(=O)c1nn(-c2cccc(F)c2)c2c1N(C)S(=O)(=O)c1ccccc1-2 [Compound I-21]
Output: 1.0

---

- Tested on: pyresis
- Experiment Summary: Antipyretic activity according to Burn et al.
- Assay type: in vivo, rat
- Experimental Parameters: 50 mg/g (so in the source) per os, female rats
Each item that follows carries a reported Reduction of the pyresis at hour 4.
State the value, then name its unit.

Examples with answers:
Molecule	Quantity Name	Reading
CCN(CC)CCNC(=O)c1nn(-c2cccc(F)c2)c2c1N(C)S(=O)(=O)c1ccccc1-2 [Compound I-20]	Reduction of the pyresis at hour 4	0.45 °C
CCN(CC)CCNC(=O)c1nn(-c2ccccc2)c2c1N(C)S(=O)(=O)c1ccccc1-2 [Compound I-1]	Reduction of the pyresis at hour 4	0.86 °C
CN(C)CCCNC(=O)c1nn(-c2cccc(F)c2)c2c1N(C)S(=O)(=O)c1ccccc1-2 [Compound I-21]	Reduction of the pyresis at hour 4	0.47 °C
CN(C)CCCNC(=O)c1nn(-c2ccccc2)c2c1N(C)S(=O)(=O)c1ccccc1-2 [Compound I-2]	Reduction of the pyresis at hour 4	0.58 °C
CN1c2c(C(=O)NCCCNC3CCCCC3)nn(-c3cccc(F)c3)c2-c2ccccc2S1(=O)=O [Compound I-23]	Reduction of the pyresis at hour 4	1.20 °C

Input: # lookup: Reduction of the pyresis at hour 4 of CN1c2c(C(=O)NCCCNC3CCCCC3)nn(-c3ccccc3)c2-c2ccccc2S1(=O)=O [Compound I-4]
Output: 1.40 °C

Input: # lookup: Reduction of the pyresis at hour 4 of CCN1CCCC1CNC(=O)c1nn(-c2ccccc2)c2c1N(C)S(=O)(=O)c1ccccc1-2 (centres unmarked) [Compound I-24]
Output: 0.81 °C

Input: # lookup: Reduction of the pyresis at hour 4 of CN1c2c(C(=O)NCCCN3CCOCC3)nn(-c3ccccc3)c2-c2ccccc2S1(=O)=O [Compound I-3]
Output: 0.77 °C
